# Assay Method Text: NCI Yeast Anticancer Drug Screen. Data for the mec2-1 strain (AID 157)
# Condition Label: S. cerevisiae mec2-1 strain, stronger effect = higher value; at 50.0 µM unless noted
This is part of a sample that, as a whole, favours compounds with a hit. Of some 79,000 tested, about 15% had one in any assay.
Property Name: growth inhibition (%)
Quick reminder: number only, in %, skip the unit.

Report growth inhibition for CCCOC(=O)c1ccc(O)cc1.[Cu+2] please.
-13.3

Same question for CCOC(=O)Cc1ccc2ccccc2c1 please.
-24.1

Thanks! And N#CC(C(=O)CCC(=O)C(C#N)c1ccccc1)c1ccccc1 (configuration not stated) ?
-14.8

Next entry: COc1ccc(C=Nc2ccccc2C(=O)O)cc1
7.1

One more compound: COc1ccc(/C(C)=C\C(=O)O)cc1
-3.2

Lookup O=c1c2c3c(sc2nc2n1N=C(c1ccc(Cl)cc1)CS2)CCCC3
6.05

Follow-up entry: COc1ccc(/C=N/NS(=O)(=O)c2ccc(NC(C)=O)cc2)cc1
-30.1

----------
# Assay Method Text: NCI Yeast Anticancer Drug Screen. Data for the mlh1 rad18 strain (AID 175)
# Condition Label: S. cerevisiae mlh1 rad18 strain growth inhibition, stronger effect = higher value; at 50.0 µM unless noted
The panel holds about 79,000 compounds, 15% with a hit somewhere; the sample as a whole holds those more often.
Property Name: growth inhibition (%)
Write the value in % as a bare number.

Which measured growth inhibition value corresponds to O/N=C/c1ccc(O)cc1 ?
-28.9

Next molecule up: COc1ccc(C=Nc2ccccc2C(=O)O)cc1
5.9

Okay, and C1COC2(OC1)OCCCO2 ?
3.05

Ok, now O=C(O)c1nc(-c2ccccc2)ncc1-c1nnnn1-c1ccccc1
-7.1

# iterate: Cc1ccc(C)c(NS(=O)(=O)c2ccc(Cl)cc2)c1
99.2

Okay, and N#Cc1c(-c2ccc(Cl)cc2)c(-c2ccc(Cl)cc2)nn(CCOC(=O)CCC(=O)OCCn2nc(-c3ccc(Cl)cc3)c(-c3ccc(Cl)cc3)c(C#N)c2=O)c1=O ?
26.4

----------
# Assay Method Text: NCI Yeast Anticancer Drug Screen. Data for the rad50 strain (AID 155);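 note: 0% = growth of vehicle-only cultures of the same strain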
# Condition Label: S. cerevisiae rad50 strain growth inhibition, stronger effect = higher value; at 50.0 µM unless noted
This is part of a sample that, as a whole, favours compounds with a hit. Of some 79,000 tested, about 15% had one in any assay.
Field: growth inhibition. Provide a value for each of the compounds that follow.
All answers are understood in %, so give the number only.

Need growth inhibition, item N#CCCOc1ccc(N)cc1
0.55

Another compound to look at: Cn1cnc2nc(Cl)nc(N)c21
0

Likewise for Cc1cc(C)c(CC(C)C)c(C)c1 ?
1.85

What about BrCC1CN=C(c2ccccc2)O1 (stereo not drawn) ?
-5.55

Now try O=S(=O)(O)CCCOC1COc2ccccc2OCCOCCOc2ccccc2OC1 .
-0.65

And the next one, CC(=O)NCCc1c[nH]c2ccc(Cl)cc12 ?
-33.5

What about COC(=O)[C@]1(c2ccc(N(C)C)cc2OC)C[C@@H]2CCCN(CCc3c1[nH]c1ccccc31)C2 ?
-5.8

Queued: O=C1OCCOCCOCCOCCOC(=O)c2cccc1n2
-10.2

Entry to check: COc1cc2c(cc1OC)C(C(N)=O)NCC2 (stereo not drawn)
10.2

Try this compound too: [Mn+2].[NH-]C(Cc1ccc(O)cc1)C(=O)O.[NH-]C(Cc1ccc(O)cc1)C(=O)O (stereo not drawn)
0.35

Also need CN(C)c1ccc(Cc2ccc(N(C)C)cc2N)cc1 , thanks.
-0.85

// repeat for CCCCCCCCCCCCC(C)O (stereo not drawn) and report
-23.2

// next record CCOC(=O)C(Cc1c[nH]c2c(N(CCO)CCO)cccc12)(NC(C)=O)C(=O)OCC
-0.45
